biological target: T1, Bio-His-FIKK13 (Plasmodium falciparum 3D7, biotin (site not stated)); assay: SPR; single-cycle kinetics, Biacore S200, Biotin CAPture kit; Bio-His-FIKK13 immobilised (about 1,400 RU), peptides as analytes; 50 mM Tris pH 7.5, 250 mM NaCl, 2 mM DTT, 10 mM MgCl2, 1.5 µM ADP, 0.02% Tween, 0.1% DMSO; 25 °C; 100 s contact time; conditions: both partners purified
T1 construct: also called His-bio-FIKK13; PfFIKK13
Test Readout: Kd

Binder	Meas Value
YPLRFLAVKAHCG (D-tyrosine at position 1; cyclised via a thioether bond between the N-terminus and the cysteine side chain; C-terminal amide) [FIKK13_4_S7AY10A]	> 10 µM
